System: CYP3A4
protocol: CYP3A4 enzyme induction assay in cryopreserved HepaRG cells (midazolam probe, LC/MS); as to Assigned classification CYP3A4: key: 1=Positive=inducer; 0=Negative=non-inducer
Assay type: in vitro ADME, human
settings: HepaRG; Lab 1; batch 36
Counter-ions that a name gives are not always drawn.
measured_attribute: Assigned classification CYP3A4

In the examples that follow, each entry is paired with its recorded Assigned classification CYP3A4.
NC(=O)N1c2ccccc2C=Cc2ccccc21 [Carbamazepine] : 0
COc1ccc2[nH]c([S+]([O-])Cc3ncc(C)c(OC)c3C)nc2c1 (stereo not drawn) : 0
COc1ccccc1Oc1c(NS(=O)(=O)c2ccc(C(C)(C)C)cc2)nc(-c2ncccn2)nc1OCCO [Bosentan hydrate] : 1
COCCc1ccc(OCC(O)CNC(C)C)cc1 (stereo not drawn) : 0

(a) CC(C)NCC(O)c1ccc(NS(C)(=O)=O)cc1 (stereo not drawn) [Sotalol hydrochloride]
(b) O=C1NC(=O)C(c2ccccc2)(c2ccccc2)N1 [Phenytoin sodium]
Quick check, higher Assigned classification CYP3A4 between a and b ? Bench note: the answer is the label of the chosen record.
b
(b: 1, a: 0)

###

Test system: CYP1A2
protocol: CYP1A2 enzyme induction assay in cryopreserved primary human hepatocytes (PHH);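 also: code 1 means positive inducer and 0 means non-inducer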
Assay type: in vitro ADME
settings: PHH; Lab 1; batch 8 0 8
Counter-ions that a name gives are not always drawn.
measured_attribute: Assigned classification CYP1A2

In the examples that follow, each entry is paired with its recorded Assigned classification CYP1A2.
NC(=O)N1c2ccccc2C=Cc2ccccc21 [Carbamazepine] : 0
CO[C@H]1/C=C/O[C@@]2(C)Oc3c(C)c(O)c4c(c3C2=O)C2=NC3(CCN(CC(C)C)CC3)NC2=C(NC(=O)/C(C)=C\C=C\[C@H](C)[C@H](O)[C@@H](C)[C@@H](O)[C@@H](C)[C@H](OC(C)=O)[C@@H]1C)C4=O [Rifabutin] : 0
CO[C@H]1/C=C/O[C@@]2(C)Oc3c(C)c(O)c4c(O)c(c(/C=N/N5CCN(C)CC5)c(O)c4c3C2=O)NC(=O)/C(C)=C\C=C\[C@H](C)[C@H](O)[C@@H](C)[C@@H](O)[C@@H](C)[C@H](OC(C)=O)[C@@H]1C [Rifampicin] : 0
O=C1Nc2ccc(Cl)cc2[C@@](C#CC2CC2)(C(F)(F)F)O1 [Efavirenz] : 0
COc1ccc2[nH]c([S+]([O-])Cc3ncc(C)c(OC)c3C)nc2c1 (stereo not drawn) [Omeprazole] : 1
COc1ccccc1Oc1c(NS(=O)(=O)c2ccc(C(C)(C)C)cc2)nc(-c2ncccn2)nc1OCCO [Bosentan hydrate] : 0
CC(C)NCC(O)c1ccc(NS(C)(=O)=O)cc1 (stereo not drawn) [Sotalol hydrochloride] : 0

(1) COCCc1ccc(OCC(O)CNC(C)C)cc1 (stereo not drawn) [Metoprolol]
(2) O=C1NC(=O)C(c2ccccc2)(c2ccccc2)N1 [Phenytoin sodium]
Which gives the smaller Assigned classification CYP1A2 number: 1 or 2 ? # respond with the chosen item's label
2

###

Test system: CYP3A4
protocol: CYP3A4 enzyme induction assay in cryopreserved HepaRG cells (midazolam probe, LC/MS)
Format: in vitro ADME, human
settings: CYP3A4, HepaRG cells
measured_attribute: F2 (µM)

O=C1C(CC[S+]([O-])c2ccccc2)C(=O)N(c2ccccc2)N1c1ccccc1 (stereo not shown) : 11
COc1ccccc1Oc1c(NS(=O)(=O)c2ccc(C(C)(C)C)cc2)nc(-c2ncccn2)nc1OCCO [Bosentan hydrate] : 0.29

(a) O=C1NC(=O)C(c2ccccc2)(c2ccccc2)N1 [Phenytoin sodium]
(b) NC(=O)N1c2ccccc2C=Cc2ccccc21 [Carbamazepine]
Which entry shows the lesser value of F2 here, a or b ? Your answer should be the label of the entry you select.
a
(a: 12.2 µM, b: 18.8 µM)

###

System: CYP1A2
protocol: CYP1A2 enzyme induction assay in cryopreserved primary human hepatocytes (PHH);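 also: code 1 means positive inducer and 0 means non-inducer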
Format: in vitro ADME
settings: PHH; Lab 1; batch 4 0 8
Counter-ions that a name gives are not always drawn.
measured_attribute: Assigned classification CYP1A2

Example results:
O=C1Nc2ccc(Cl)cc2[C@@](C#CC2CC2)(C(F)(F)F)O1 : 0
CO[C@H]1/C=C/O[C@@]2(C)Oc3c(C)c(O)c4c(c3C2=O)C2=NC3(CCN(CC(C)C)CC3)NC2=C(NC(=O)/C(C)=C\C=C\[C@H](C)[C@H](O)[C@@H](C)[C@@H](O)[C@@H](C)[C@H](OC(C)=O)[C@@H]1C)C4=O : 1
COc1ccc2[nH]c([S+]([O-])Cc3ncc(C)c(OC)c3C)nc2c1 (stereo not drawn) : 1

(1) COCCc1ccc(OCC(O)CNC(C)C)cc1 (stereo not drawn)
(2) CC(C)NCC(O)c1ccc(NS(C)(=O)=O)cc1 (stereo not drawn) [Sotalol hydrochloride]
Of the pair 1 and 2 , name the member with the lesser recorded Assigned classification CYP1A2. # respond with the chosen item's label
2

(a) NC(=O)N1c2ccccc2C=Cc2ccccc21 [Carbamazepine]
(b) O=C1NC(=O)C(c2ccccc2)(c2ccccc2)N1 [Phenytoin sodium]
Smaller Assigned classification CYP1A2 value? Options are a and b In your reply, give the label of the chosen option.
b
(b: 0, a: 1)

###

Test system: CYP1A2
protocol: CYP1A2 enzyme induction assay in cryopreserved HepaRG cells (phenacetin probe, LC/MS); as to Assigned classification CYP1A2: key: 1=Positive=inducer; 0=Negative=non-inducer
Format: in vitro ADME, human
settings: HepaRG; Lab 3; batch 35
measured_attribute: Assigned classification CYP1A2

Example compounds with recorded Assigned classification CYP1A2:
COc1ccc2[nH]c([S+]([O-])Cc3ncc(C)c(OC)c3C)nc2c1 (stereo not shown) : 1
O=C1NC(=O)C(c2ccccc2)(c2ccccc2)N1 [Phenytoin sodium] : 0

(A) NC(=O)N1c2ccccc2C=Cc2ccccc21 [Carbamazepine]
(B) COCCc1ccc(OCC(O)CNC(C)C)cc1 (stereo not shown)
Given A and B , report the one with the higher recorded Assigned classification CYP1A2. In your reply, give the label of the chosen option.
A

###

protocol: Solubility by visual inspection (DMSO stock solution and assay medium)
Format: physicochemical
settings: Lab 2, visual observation, assay medium
Protocol: The SOPs relied on visual inspection for solubility observation. […] The absence of precipitation in the medium was checked pre- and post-incubation (24 hours) by centrifugation of the sample and observation of any precipitation (pellet residue).
measured_attribute: HepaRG medium stability (µg/mL)

O=C1Nc2ccc(Cl)cc2[C@@](C#CC2CC2)(C(F)(F)F)O1 [Efavirenz] : 40
CO[C@H]1/C=C/O[C@@]2(C)Oc3c(C)c(O)c4c(c3C2=O)C2=NC3(CCN(CC(C)C)CC3)NC2=C(NC(=O)/C(C)=C\C=C\[C@H](C)[C@H](O)[C@@H](C)[C@@H](O)[C@@H](C)[C@H](OC(C)=O)[C@@H]1C)C4=O [Rifabutin] : 20

(a) CC1(C)S[C@@H]2[C@H](NC(=O)Cc3ccccc3)C(=O)N2[C@H]1C(=O)O [Penicillin G sodium]
(b) OCc1c[nH]c2ccccc12 [Indole-3-carbinol]
(c) O=C1NC(=O)C(c2ccccc2)(c2ccccc2)N1 [Phenytoin sodium]
Number of compounds to sort: 3. Sort criterion: HepaRG medium stability, ascending. Please respond with the labels ordered as the question requires.
b, c, a

###

Test system: CYP1A2
protocol: CYP1A2 enzyme induction assay in cryopreserved HepaRG cells (phenacetin probe, LC/MS)
Assay type: in vitro ADME, human
settings: CYP1A2, HepaRG cells; in vitro concentration producing 2-fold induction
measured_attribute: F2 (µM)

Some compounds with recorded F2:
COc1ccc2[nH]c([S+]([O-])Cc3ncc(C)c(OC)c3C)nc2c1 (stereo not drawn) : 12.9
O=C1NC(=O)C(c2ccccc2)(c2ccccc2)N1 [Phenytoin sodium] : 36.5

(1) O=C1C(CC[S+]([O-])c2ccccc2)C(=O)N(c2ccccc2)N1c1ccccc1 (stereo not drawn)
(2) NC(=O)N1c2ccccc2C=Cc2ccccc21 [Carbamazepine]
Dear colleague, could you let me know whether 1 or 2 has the lower recorded F2? Thanks. Select an item and report its label.
1

###

System: CYP1A2
protocol: CYP1A2 enzyme induction assay in cryopreserved HepaRG cells (phenacetin probe, LC/MS); as to Assigned classification CYP1A2: key: 1=Positive=inducer; 0=Negative=non-inducer
Assay type: in vitro ADME, human
settings: HepaRG; Lab 2; batch 35
Where a name gives a salt, the structure may show the parent alone.
measured_attribute: Assigned classification CYP1A2

Past entries and their recorded results:
COc1ccc2[nH]c([S+]([O-])Cc3ncc(C)c(OC)c3C)nc2c1 (stereo not shown) : 1
CO[C@H]1/C=C/O[C@@]2(C)Oc3c(C)c(O)c4c(O)c(c(/C=N/N5CCN(C)CC5)c(O)c4c3C2=O)NC(=O)/C(C)=C\C=C\[C@H](C)[C@H](O)[C@@H](C)[C@@H](O)[C@@H](C)[C@H](OC(C)=O)[C@@H]1C : 1

(a) CC(C)NCC(O)c1ccc(NS(C)(=O)=O)cc1 (stereo not shown) [Sotalol hydrochloride]
(b) NC(=O)N1c2ccccc2C=Cc2ccccc21 [Carbamazepine]
I'm curious whether a or b has the smaller Assigned classification CYP1A2 number. Which is it? To answer, give the label that identifies your chosen option.
a
(a: 0, b: 1)
